Reference source: PubChem BioAssay

I'd appreciate it if you could supply composite z-score values for the items below.
# experiment.description: small-molecule microarray binders of probe aNog, primary screen, biochemical, biotinylated probe, 635/667 nm fluorescence (AID 1115);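 further: probe is biotinylated aNog protein used at 0.15 µg/mL for 1 h at 4 C; z-score combines 667 nm fluorescence of each spot with its signal to noise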
# condition.parameters: higher = more signal

Take a look at these entries with their results.
compound	observation.type	result
COCCOC(=O)N1C(=O)[C@@]2(c3cc(C#CCCO)ccc31)[C@H](C(=O)NC[C@H](O)c1ccccc1)[C@H]1C(=O)O[C@H](c3ccccc3)[C@H](c3ccccc3)N1[C@@H]2c1ccc(O)cc1	composite z-score	-0.0784
CN1C=C(C(=O)OCCS(C)(=O)=O)C(C(=O)OCCS(C)(=O)=O)=CC(CCCO)=CC1C1CC1 (centres undefined)	composite z-score	0.257
COC(=O)c1c(CC[C@@H](CO)NC(=O)N[C@@H](Cc2ccccc2)Cn2cc(C3(O)CCCCC3)nn2)oc(C(C)=O)c1C(=O)OC	composite z-score	-0.449
O=C1[C@]2(CO)C=C(Br)[C@@H](C[C@@H]2c2ccccc2)[C@@]12CO2	composite z-score	-0.158
CN(C)C(=O)[C@@]1(CCC(=O)OC(C)(C)C)N=C(c2ccc(OCCCO)cc2)O[C@H]1c1ccccc1	composite z-score	0.546
Cc1ccc([C@H]2[C@H](C(=O)O)[C@H](Sc3ccccc3)[C@@H](C(C)C)N2S(=O)(=O)c2ccc(C)cc2)cc1	composite z-score	-0.528
C=CC[C@@H](OC(=O)Nc1ccc(OC)cc1)c1ccc(O)c2ccccc12	composite z-score	-0.139
COC(=O)[C@@]1(Cc2ccccc2)N=C(c2ccc(OCCCO)cc2)O[C@H]1c1ccccc1N=[N+]=[N-]	composite z-score	0.781
COc1cc(CO)ccc1OC(C)=O	composite z-score	-0.0615
N[C@@H](Cc1ccccc1)Cn1cc(-c2ccccc2)nn1	composite z-score	-0.329

Quick batch: composite z-score for everything below.
1. C=CCOC(=O)[C@@H]1[C@H]2C(=O)O[C@H](c3ccccc3)[C@H](c3ccccc3)N2[C@H](c2ccc(OCCOC(=O)[C@@H]3C[C@@H]4C(=O)NCC(=O)N4[C@@H]3c3cccc(OCCO)c3)cc2)[C@@]12C(=O)Nc1ccc(I)cc12
2. C=C(CCCC)/C(=C/C[C@H](OC(C)=O)c1ccc(CO)o1)c1cnc2ccccc2c1
3. CC(C)N1C(=O)C[C@@](C(=O)NCc2ccccc2)(c2ccc([N+](=O)[O-])cc2)[C@H]1c1ccc(CO)cc1
4. C=C(CCCC)C(=O)CC[C@H](OC(=O)c1cccnc1)c1cccc(OCCO)c1

1.07
-0.28
-0.498
-0.356
